Kindly supply the reported k cat/Km values for the records listed here.
TGT: Xaa-Pro dipeptidase (Alteromonas sp.) (UniProt Q44238)
Sequence (Q44238 whole entry, looked up): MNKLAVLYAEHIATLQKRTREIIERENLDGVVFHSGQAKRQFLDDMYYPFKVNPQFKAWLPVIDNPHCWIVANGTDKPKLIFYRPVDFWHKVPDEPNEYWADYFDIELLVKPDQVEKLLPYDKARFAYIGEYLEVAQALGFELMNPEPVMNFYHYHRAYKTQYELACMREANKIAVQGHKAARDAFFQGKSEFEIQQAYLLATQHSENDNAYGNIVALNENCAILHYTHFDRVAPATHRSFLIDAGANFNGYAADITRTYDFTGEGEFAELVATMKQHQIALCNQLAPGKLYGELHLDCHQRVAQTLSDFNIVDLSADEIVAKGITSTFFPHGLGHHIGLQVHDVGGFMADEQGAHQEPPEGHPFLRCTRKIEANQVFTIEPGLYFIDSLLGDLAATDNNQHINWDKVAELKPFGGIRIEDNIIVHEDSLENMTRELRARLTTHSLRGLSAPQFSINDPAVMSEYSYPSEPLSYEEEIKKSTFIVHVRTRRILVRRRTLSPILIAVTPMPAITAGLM
TEST_NAME: Ratio of kinetic constant Kcat to Km from initial velocity assay against OPAA from Alteromonas sp. JD6.5
Answers are plain numbers, in M⁻¹ s⁻¹.

1) CCO[P@@](=O)(Oc1ccccc1)Oc1ccc([N+](=O)[O-])cc1 360
2) CC(C)O[P@@](=O)(Oc1ccccc1)Oc1ccc([N+](=O)[O-])cc1 150
3) CO[P@](=O)(Oc1ccccc1)Oc1ccc([N+](=O)[O-])cc1 2340
4) O=[N+]([O-])c1ccc(OP(=O)(Oc2ccccc2)Oc2ccccc2)cc1 530

Attention now turns to another entry.
What measured k cat/Km goes with CCO[P@@](=O)(OC)Oc1ccc([N+](=O)[O-])cc1 ?
90
